Target: DNA topoisomerase 2-alpha (Homo sapiens, UniProt P11388)
Sequence (P11388 whole entry): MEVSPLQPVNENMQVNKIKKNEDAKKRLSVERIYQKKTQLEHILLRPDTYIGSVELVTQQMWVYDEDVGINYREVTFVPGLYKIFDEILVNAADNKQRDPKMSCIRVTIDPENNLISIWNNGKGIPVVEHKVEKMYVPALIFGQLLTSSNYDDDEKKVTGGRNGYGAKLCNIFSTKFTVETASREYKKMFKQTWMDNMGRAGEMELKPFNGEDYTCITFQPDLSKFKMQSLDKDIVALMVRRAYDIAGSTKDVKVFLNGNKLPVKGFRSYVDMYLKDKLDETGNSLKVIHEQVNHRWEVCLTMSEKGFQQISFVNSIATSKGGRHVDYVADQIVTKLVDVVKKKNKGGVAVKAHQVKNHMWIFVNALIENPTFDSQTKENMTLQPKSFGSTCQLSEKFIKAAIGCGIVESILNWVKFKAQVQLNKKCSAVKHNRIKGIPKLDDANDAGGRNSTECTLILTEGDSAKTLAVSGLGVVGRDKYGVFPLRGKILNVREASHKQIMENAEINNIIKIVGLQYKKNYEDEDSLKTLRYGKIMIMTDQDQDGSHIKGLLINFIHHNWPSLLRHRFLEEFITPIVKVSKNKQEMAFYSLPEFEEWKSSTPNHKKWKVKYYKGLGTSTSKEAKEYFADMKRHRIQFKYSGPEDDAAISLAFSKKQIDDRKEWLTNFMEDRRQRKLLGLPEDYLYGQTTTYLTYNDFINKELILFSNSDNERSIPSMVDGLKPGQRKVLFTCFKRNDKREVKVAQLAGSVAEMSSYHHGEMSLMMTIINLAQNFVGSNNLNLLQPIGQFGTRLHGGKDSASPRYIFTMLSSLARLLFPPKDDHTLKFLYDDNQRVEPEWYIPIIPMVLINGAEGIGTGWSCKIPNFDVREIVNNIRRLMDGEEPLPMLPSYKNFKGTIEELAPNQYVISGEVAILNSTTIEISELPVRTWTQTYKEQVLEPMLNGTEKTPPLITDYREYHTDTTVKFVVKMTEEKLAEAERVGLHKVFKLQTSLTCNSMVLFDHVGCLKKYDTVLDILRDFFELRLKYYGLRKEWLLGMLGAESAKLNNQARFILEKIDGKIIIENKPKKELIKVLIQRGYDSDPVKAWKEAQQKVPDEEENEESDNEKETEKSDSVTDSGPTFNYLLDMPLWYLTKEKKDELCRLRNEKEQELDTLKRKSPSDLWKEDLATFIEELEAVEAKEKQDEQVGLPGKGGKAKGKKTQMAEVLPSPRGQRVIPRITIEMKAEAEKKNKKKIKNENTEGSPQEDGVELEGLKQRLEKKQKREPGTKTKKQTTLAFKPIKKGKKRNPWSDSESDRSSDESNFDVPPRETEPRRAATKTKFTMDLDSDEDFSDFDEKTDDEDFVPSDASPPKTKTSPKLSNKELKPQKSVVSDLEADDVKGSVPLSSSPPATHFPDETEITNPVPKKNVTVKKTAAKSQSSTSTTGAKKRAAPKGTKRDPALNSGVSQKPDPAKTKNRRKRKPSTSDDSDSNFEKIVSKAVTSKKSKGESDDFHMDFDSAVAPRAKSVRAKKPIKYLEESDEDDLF
Assay: Inhibitory concentration against human DNA topoisomerase II, alpha mediated relaxation of pBR322
pIC50: −log10 of the molar value.
propertyName: pIC50

Input: Dear colleague, I am looking for the recorded pIC50 of the following molecule: COC(=O)c1cccc2oc(-c3cccc4oc(-c5ccccc5O)nc34)nc12
Output: 4.30

(I) COC(=O)c1cccc2oc(-c3cccc4oc(-c5ccccc5)nc34)nc12
(II) Oc1ccccc1-c1nc2c(-c3nc4ccccc4o3)cccc2o1
Input: Param pair: I , II . Output: the one whose pIC50 is numerically greater. Label of pick, please.
Output: II
(II: 4.70, I: 4.42)
